Reported glass transition temperature values are given for each entry in this list.
// return numeric value only (unit: °C, not printed)

*C(=O)c1ccc2c(c1)C(=O)N(c1ccc(C(=O)Nc3ccc(Oc4ccc(NC(=O)c5ccc(NC(=O)Nc6ccc(Cc7ccc(NC(=O)Nc8ccc(C(=O)Nc9ccc(Oc%10ccc(NC(=O)c%11ccc(N%12C(=O)c%13ccc(*)cc%13C%12=O)cc%11)cc%10)cc9)cc8)cc7)cc6)cc5)cc4)cc3)cc1)C2=O (repeat unit)    229.00
*Oc1ccc(C(C)(C)c2ccc(Oc3ccc(C(=O)c4ccc(P(=O)(c5ccccc5)c5ccc(C(=O)c6ccc(*)cc6)cc5)cc4)cc3)cc2)cc1 (repeat unit)    195.00
*OP(=O)(Oc1ccc(C)cc1)Oc1ccc(S(=O)(=O)c2ccc(*)cc2)cc1 (repeat unit)    66.00

Problem: What measured glass transition temperature goes with *C(=O)c1ccc2c(c1)C(=O)N(c1ccc(OCCOCCOc3ccc(N4C(=O)c5ccc(*)cc5C4=O)cc3)cc1)C2=O (repeat unit) ?
Result: 235.00

Problem: Value lookup for glass transition temperature; key = *CC(=O)c1ccc(Oc2ccc(C(=O)COc3ccc(/C=C4\CCC/C(=C\c5ccc(O*)c(OC)c5)C4=O)cc3OC)cc2)cc1 (repeat unit)
Result: 211.8

Problem: I would be grateful if you could share the reported glass transition temperature for */C=C(/*)CCCOc1ccc(OC(=O)c2ccc(OC)cc2)cc1 (repeat unit) .
Result: 20.00

Problem: Value lookup for glass transition temperature; key = *c1cccc(P(=O)(c2ccc(C(F)(F)F)cc2)c2cccc(-n3c(=O)c4c(-c5cc(C(F)(F)F)cc(C(F)(F)F)c5)c5c(=O)n(*)c(=O)c5c(-c5cc(C(F)(F)F)cc(C(F)(F)F)c5)c4c3=O)c2)c1 (repeat unit)
Result: 311.00

Problem: Looking for the measured glass transition temperature of *c1cc(CCCCCC)c(*)s1 (repeat unit) , can you help?
Result: 15.2

Problem: Record request: glass transition temperature value, item *CCCC(=O)Nc1ccc(Oc2cccc(NC(=O)CCCN3C(=O)c4ccc(C(=O)c5ccc6c(c5)C(=O)N(*)C6=O)cc4C3=O)c2)cc1 (repeat unit)
Result: 188.00

Problem: Data request, read-out glass transition temperature, for *CC(*)(C)C(=O)NC(C)c1cccc2ccccc12 (repeat unit)
Result: 171.00

Problem: What value of glass transition temperature has been recorded for this entry: *CCCCCCOc1ccc(/C=C2\CCC/C(=C\c3ccc(O*)cc3)C2=O)cc1 (repeat unit)
Result: 116.00

Problem: Form field: reported glass transition temperature of *c1ccc(OCCCCCCCCCCCOC(=O)c2cccc(C(=O)OCCCCCCCCCCCOc3cccc(-c4nnc(*)s4)c3)c2)cc1 (repeat unit)
Result: 39.00

Problem: May I ask what glass transition temperature has been recorded for *CC(*)N1CCCCCC1=O (repeat unit) ?
Result: 174.60

Problem: Fill in: glass transition temperature of *CCC(*)(C)C (repeat unit) is ___
Result: -12.00

Problem: Could you tell me which glass transition temperature is on file for *CC(*)C(=O)OCCO (repeat unit) ?
Result: 20.70

---

compounds and their reported glass transition temperature
Numbers only; they are read as °C.

Field: example entries. Status: answers known.
*c1cccc(P(=O)(c2ccccc2)c2cccc(N3C(=O)c4ccc(Oc5ccc6c(c5)C(=O)N(*)C6=O)cc4C3=O)c2)c1 (repeat unit)    251.00
*CCOC(=O)Nc1ccc(C)c(NC(=O)OCCOc2cc([N+](=O)[O-])ccc2/N=N/c2cn(*)c3ccc(-c4ccccc4)cc23)c1 (repeat unit)    165.00
*CCCCSSCCCCO* (repeat unit)    -76.00

Problem: Recorded glass transition temperature of *c1ccc(NC(=O)CCCCCCCC(=O)Nc2ccc(S(*)(=O)=O)cc2)cc1 (repeat unit) , please.
Result: 178.00

Problem: For the compound *CC(O)COC(=O)CCCCC(=O)OCC(O)COc1ccc(/C=C(\C)c2ccc(O*)cc2)cc1 (repeat unit) , what glass transition temperature is on record?
Result: 33.00

Problem: Returns the measured glass transition temperature for the input compound. Input: *CC(*)CCCI (repeat unit)
Result: 30.00

Problem: Consider the compound shown here: *CCCCCCN1C(=O)c2ccc(C(=O)Nc3ccc(S(=O)(=O)c4cccc(NC(=O)c5ccc6c(c5)C(=O)N(*)C6=O)c4)cc3)cc2C1=O (repeat unit) What is its recorded glass transition temperature?
Result: 190.00

Problem: What value of glass transition temperature has been recorded for this entry: *O[Si](*)(C)CCCOCCOCCOc1ccc(COc2ccc3cc(C#N)ccc3c2)cc1 (repeat unit)
Result: 30.00

---

Parameter: glass transition temperature. Scope: all listed entries.
Response body: numeric value in °C, unit text excluded.

Recorded results for 8 compounds are shown here.
*CC(CSCCCCC)O* (repeat unit)    -68.00
*CC(*)c1ccc(COCCC(F)(F)C(F)(F)C(F)(F)C(F)(F)F)cc1 (repeat unit)    13.00
*CCOC(=O)Nc1ccc(CCCCc2ccc(NC(=O)O*)cc2)cc1 (repeat unit)    105.70
*CC(C)(C)COC(=O)NC(=O)c1cccc(C(=O)NC(=O)O*)c1 (repeat unit)    66.00
*CC(*)C(=O)OCCCOc1ccc(/N=N/c2ccc([N+](=O)[O-])cc2)cc1 (repeat unit)    45.60
*O[Si](*)(C)CCCCCn1c2ccccc2c2ccccc21 (repeat unit)    7.00
*CCN(*)C(=O)c1c(F)cc(F)c(F)c1F (repeat unit)    122.00
*CCCCCCCCCCOc1ccc(/C=C2\CCC/C(=C\c3ccc(O*)c(OC)c3)C2=O)cc1OC (repeat unit)    60.00

Turning to the following compound.
Problem: Which glass transition temperature value is on record for *CCCCCCCCCCOc1c(OC)cc(/C=C/c2ccc(/C=C/c3cc(OC)c(O*)c(OC)c3)cc2)cc1OC (repeat unit) ?
Result: 68.50

---

# Lookup of reported glass transition temperature keyed by entry
// note: answer is a bare numeric in °C

Before answering, review these 3 worked examples.
*/C(=C(/*)c1ccc(CCCC)cc1)c1ccccc1 (repeat unit)    200.00
*/C=C/C(*)(C)C (repeat unit)    -9.00
*Nc1ccc(C2(c3ccc(NC(=O)c4cc(NC(=O)C56CC7CC(CC(C7)C5)C6)cc(C(*)=O)c4)cc3)c3ccccc3-c3ccccc32)cc1 (repeat unit)    370.00

Problem: // returns reported glass transition temperature for input *c1ccc(-c2ccc([Si](*)(CCCC)CCCC)s2)s1 (repeat unit)
Result: -10.00

Problem: For *CCCCCC(=O)S* (repeat unit) , what is its reported glass transition temperature?
Result: 19.00

Problem: Bench note: what glass transition temperature did *c1cccc(N2C(=O)C(=O)N(CCCCCCN3C(=O)C(=O)N(*)C3=O)C2=O)n1 (repeat unit) show?
Result: 169.50

Problem: Can you look up the measured glass transition temperature of *CC(O)CN(*)c1ccc(/N=N/c2ccc([N+](=O)[O-])cc2C)cc1 (repeat unit) for me?
Result: 156.00

Problem: # get_value(readout='glass transition temperature', item= *CC(C)(C)S* (repeat unit) )
Result: -14.00

Problem: Quick check: glass transition temperature of *CCN(*)C(=O)C12CC3CC(CC(C3)C1)C2 (repeat unit) ?
Result: 123.00

Problem: Item under review: *CC#CC#CCOc1cccc(C(=O)OCCN(CCOC(=O)c2cccc(O*)c2)c2ccc(/N=N/c3ccc(C#N)cc3)cc2)c1 (repeat unit) . Reported glass transition temperature?
Result: 50.00

---

Label FALSE if glass transition temperature falls below 200 °C; label TRUE in every other case.

These solved cases illustrate the format of a correct answer.
*CC(F)(F)C(F)(F)C(F)(F)COC(=O)c1cc(C(=O)O*)cc(C(F)(F)C(F)(F)C(F)(F)C(F)(F)C(F)(F)C(F)(F)C(F)(F)F)c1 (repeat unit)    FALSE
*Oc1ccc(C(C)(C)c2ccc(OC(=O)OCCN(CCOC(*)=O)c3ccc(OC)cc3)cc2)cc1 (repeat unit)    FALSE
*Oc1cccc(NC(=O)c2ccc(C(=O)Nc3ccc(Oc4ccc(C(=O)c5ccc(*)cc5)cc4)cc3)cc2)c1 (repeat unit)    FALSE
*Oc1ccc(NC(=O)c2ccc(Oc3ccc(C(C)(C)c4cccc(C(C)(C)c5ccc(Oc6ccc(C(=O)Nc7ccc(Oc8ccc(C(C)(C)c9ccc(*)cc9)cc8)cc7)cc6)cc5)c4)cc3)cc2)cc1 (repeat unit)    FALSE
*/C=C/C(C)C(*)C(=O)OCCN(C)c1ccc(N(C)C)cc1 (repeat unit)    FALSE

Problem: Threshold query (glass transition temperature >= 200 °C) on *CCN(*)C(=O)c1c(F)c(F)cc(F)c1F (repeat unit)
Result: FALSE

Problem: For this compound, is measured glass transition temperature 200 °C or higher? *C(=O)OCCN(CCOC(=O)c1ccc2c(c1)C(=O)N(c1c(C)cc(Cc3cc(C)c(N4C(=O)c5ccc(*)cc5C4=O)c(C)c3)cc1C)C2=O)c1ccc(/N=N/c2ccc([N+](=O)[O-])cc2[N+](=O)[O-])cc1 (repeat unit)
Result: FALSE

Problem: # bool: glass transition temperature of *Nc1ccc(Br)cc1-c1ccc(NC(=O)c2ccc(C(*)=O)cc2)cc1 (repeat unit) >= 200 °C
Result: TRUE

Problem: Hi, just wondering whether *c1ccc(Oc2ccc(-c3c(-c4ccccc4)nc4ccc(-c5ccc6nc(-c7ccccc7)c(*)c(-c7ccccc7)c6c5)cc4c3-c3ccccc3)cc2)cc1 (repeat unit) shows glass transition temperature of 200 °C or higher.
Result: TRUE

Problem: Please check the record *c1ccc2c(c1)C(=O)N(c1ccc(Oc3ccc(C(=O)c4cccc(C(=O)c5ccc(Oc6ccc(N7C(=O)c8ccc(C(*)(C(F)(F)F)C(F)(F)F)cc8C7=O)cc6C(F)(F)F)cc5)n4)cc3)c(C(F)(F)F)c1)C2=O (repeat unit) and state if its glass transition temperature is at or above 200 °C.
Result: TRUE

Problem: Entry *c1ccc(Oc2ccc(NC(=O)c3ccc(Oc4cccc5c4C(=O)N(*)C5=O)cc3)cc2)cc1 (repeat unit) : is its glass transition temperature no less than 200 °C?
Result: TRUE

Problem: Check if glass transition temperature >= 200 °C (inclusive). Item: *CC(CC)(CC)COC(=O)Nc1ccc(C)c(NC(=O)O*)c1 (repeat unit)
Result: FALSE

Data provenance is the PolyMetriX glass transition set.
